Heads up, these compounds all have MIC values measured for E. coli ΔTolC.
Numbers only, in µM.

Prompt: Give a short answer stating reported MIC for C=C[C@]1(C)C[C@@H](OC(=O)CSCCOCCO)[C@]2(C)[C@H](C)CC[C@]3(CCC(=O)[C@H]32)[C@@H](C)[C@@H]1O .
Completion: 0.391

Hey, can you go through the list below and give me MIC for every item?
1. C=C[C@]1(C)C[C@@H](OC(=O)CSCCOCCN=[N+]=[N-])[C@]2(C)[C@H](C)CC[C@]3(CCC(=O)[C@H]32)[C@@H](C)[C@@H]1O
2. C=C[C@]1(C)C[C@@H](OC(=O)CSCCOCCOCCN=[N+]=[N-])[C@]2(C)[C@H](C)CC[C@]3(CCC(=O)[C@H]32)[C@@H](C)[C@@H]1O
3. C=C[C@]1(C)C[C@@H](OC(=O)CSCCOCCOCCO)[C@]2(C)[C@H](C)CC[C@]3(CCC(=O)[C@H]32)[C@@H](C)[C@@H]1O
4. C=C[C@]1(C)C[C@@H](OC(=O)CSCCOCCOCCOCCN=[N+]=[N-])[C@]2(C)[C@H](C)CC[C@]3(CCC(=O)[C@H]32)[C@@H](C)[C@@H]1O
5. C=C[C@]1(C)C[C@@H](OC(=O)CO)[C@]2(C)[C@H](C)CC[C@]3(CCC(=O)[C@H]32)[C@@H](C)[C@@H]1O

Completion:
1: 0.391; 2: 0.391; 3: 0.391; 4: 0.391; 5: 3.12

---

Kindly supply the reported MIC values for the records listed here.
# System: E. coli MC1061
# Experiment Description: Broth microdilution MIC, E. coli MC1061
# Format: cell-based
# Condition Info: Escherichia coli, MC1061; broth microdilution, 37 °C, 16–18 h; MIC = lowest concentration inhibiting >90% of growth; read-out: Minimum inhibitory concentration, E. coli MC1061
Give bare numbers, in µM.

The cases that follow already have their MIC on record.
Prompt: Give a short answer stating reported MIC for C=C[C@]1(C)C[C@@H](OC(=O)CSCCOCCOCCN=[N+]=[N-])[C@]2(C)[C@H](C)CC[C@]3(CCC(=O)[C@H]32)[C@@H](C)[C@@H]1O [compound 30] .
Completion: 25

Prompt: Give a short answer stating reported MIC for C=C[C@]1(C)C[C@@H](OC(=O)CSCCN=[N+]=[N-])[C@]2(C)[C@H](C)CC[C@]3(CCC(=O)[C@H]32)[C@@H](C)[C@@H]1O [compound 28] .
Completion: 12.5

Prompt: Give a short answer stating reported MIC for C=C[C@]1(C)C[C@@H](OC(=O)CSCCOCCN=[N+]=[N-])[C@]2(C)[C@H](C)CC[C@]3(CCC(=O)[C@H]32)[C@@H](C)[C@@H]1O [compound 29] .
Completion: 25

Prompt: Give a short answer stating reported MIC for C=C[C@]1(C)C[C@@H](OC(=O)CSCCOCCOCCOCCN=[N+]=[N-])[C@]2(C)[C@H](C)CC[C@]3(CCC(=O)[C@H]32)[C@@H](C)[C@@H]1O [compound 31] .
Completion: 50

Prompt: Give a short answer stating reported MIC for C=C[C@]1(C)C[C@@H](OC(=O)CSCCOCCO)[C@]2(C)[C@H](C)CC[C@]3(CCC(=O)[C@H]32)[C@@H](C)[C@@H]1O [compound 43] .
Completion: 6.25

Hey, can you go through the list below and give me MIC for every item?
1. C=C[C@]1(C)C[C@@H](OC(=O)CSCCOCCOCCO)[C@]2(C)[C@H](C)CC[C@]3(CCC(=O)[C@H]32)[C@@H](C)[C@@H]1O [compound 44]
2. C=C[C@]1(C)C[C@@H](OC(=O)CSCCOCCOCCOCCOCCN=[N+]=[N-])[C@]2(C)[C@H](C)CC[C@]3(CCC(=O)[C@H]32)[C@@H](C)[C@@H]1O [compound 32]
3. C=C[C@]1(C)C[C@@H](OC(=O)CSCCOCCOCCOCCO)[C@]2(C)[C@H](C)CC[C@]3(CCC(=O)[C@H]32)[C@@H](C)[C@@H]1O [compound 45]
4. C=C[C@]1(C)C[C@@H](OC(=O)CSCCOCCOCCOCCOCCO)[C@]2(C)[C@H](C)CC[C@]3(CCC(=O)[C@H]32)[C@@H](C)[C@@H]1O [compound 46]
5. C=C[C@]1(C)C[C@@H](OC(=O)CSCCOCCOCCOCCOCCOCCO)[C@]2(C)[C@H](C)CC[C@]3(CCC(=O)[C@H]32)[C@@H](C)[C@@H]1O [compound 47]
6. C=C[C@]1(C)C[C@@H](OC(=O)CSCCOCCOCCOCCOCCOCCOCCOCCO)[C@]2(C)[C@H](C)CC[C@]3(CCC(=O)[C@H]32)[C@@H](C)[C@@H]1O [compound 48]
7. C=C[C@]1(C)C[C@@H](OC(=O)CSCCO)[C@]2(C)[C@H](C)CC[C@]3(CCC(=O)[C@H]32)[C@@H](C)[C@@H]1O [compound 25]

Completion:
12.5
25
12.5
12.5
25
25
3.12
